assay: soluble on expression in E. coli; label from the status in PepcDB or PDB records
property-label: soluble on expression in E. coli

The following sequences have reported results that may help.
>  <macromolecule-sequence>
MGSDKIHHHHHHMLNFSLTPNAKILSKDADSYPYMYRNYPFLRPWVDSLKQVNALKDTFIINPQGIQLHAFYITAPAPTSKTAVIVHGYTDNAIRMFMIGYLYNRDLGYNILLPDLQHQGESEGRAIQMGWKDRIDVLQWMNIANEIFGDSTQMVVHGISMGGATTMMVSGEKQQPYVKCFVEDCGYTSVWDEFSHELKSSFHLPAFPLMYTTSWLCEKKYGWNFKEASSLKQVEKCELPMLFIHGDKDTYVPTWMVYPLYEAKPEPKELWIVPGAAHALSYKENKQEYTDKVRDFVGRYIH

>  <soluble on expression in E. coli>
not soluble

$$$$
>  <macromolecule-sequence>
MSRLPTTPCEQLKLDNQLCFALYSTSLQMTKVYKPLLQALGLTYPQYIAMLVLWERDGLTVGEISARMLTDPGSLTPLLKRLEGEGLITRTRSSEDERVVLLRLTDKGRALQRQAESIPACILESTGLDLPQLVALKDELLALRGNLQAPD

>  <soluble on expression in E. coli>
not soluble

$$$$
>  <macromolecule-sequence>
MKKIIFTFLILGNVYNFAAQKTLRTVEKCRVTSKGTTKDGKRFANCISLQSGKTFNFTGLVDQTYYKFSKGTIFKVYFYGNGNRNLTLETFDYIR

>  <soluble on expression in E. coli>
not soluble

$$$$
>  <macromolecule-sequence>
MSNANQKITTFLMFEGKAEEAMNFYTSLFDQSEIVSISRYDENGPGKEGTVIHATFTLNGQEFMCIDSYVNHNFTFTPAMSLYVTCETEEEIDTVFHKLAQDGAILMPLGSYPFSKKFGWLNDKYGVSWQLTLAE

>  <soluble on expression in E. coli>
soluble

$$$$
>  <macromolecule-sequence>
MLFSMESILSSTKPKLEPPPKLEPEVTINEQVVDLPRSNTRLSEPSTSASVLEHDLKFGESRKRSRSLGDEPTEDEDGVPVRKANKRNHSTSSAADSSSDDAKDDDDDDDSTSRKSMSGHRKSSHAKPPYSYIALIAMSILNSPEKKLTLSEICEFIINKFEYYKEKFPAWQNSIRHNLSLNDCFVKVARGPGNPGKGNYWALDPNCEDMFDNGSFLRRRKRYKKNSDTYHEMMSHHPMPFPPFLPQGMPFPPRMMHPMANIPMLGHPMNPRAVPNMPAFFIPQNIDSQKLLSMMASRIMPMDAPVSSGQKRTSSSSSPNENGSSAVSDKLSA

>  <soluble on expression in E. coli>
soluble

$$$$
>  <macromolecule-sequence>
MGSDKIHHHHHHMHVKRAATAGFCMGVGLALKKLDRELDNNAKDIATLGPIIHNPQVLRRYEQKGVRCYTDPAEARSGQRVVIRAHGIPEETESALAAAGVDLVDATCPKVKRAQLGIARQREKGRTLLLFGEHDHPEVQGLLSYAGEGAVVFGSLEELQNGPLEDDRHYFLAAQTTQDKHAFTSVIEWVRRRFGDHVPVLDTICDATRERQDEAIAIARSVDVMVVVGGFASGNTRRLAEVAQAQGVPTYHVETPDQLPLDAIRGYGAAGLTAGASTPKSIIDETQKLLESL

>  <soluble on expression in E. coli>
not soluble

$$$$
>  <macromolecule-sequence>
MGSDKIHHHHHHMNIRIGCSGWYYPHWAGKFYPSDLNKSEWFRYYAQKFDTVEINSTFYSFPNAARVRSWVKGSPENFVFSVKVNRTITHVKRLKDCDEEIGLFYEIIGSLGKMLGCVLFQFPPSFKYSHDNLIMIEKALDQRFCNVVEFRNISWFSEDARCDLEKSDLHVVAVSSERIPLWIKEDSVVYVRLHGNVNGYATDYNEEYLTDLAQRIIDVKPQSLYVYFNNDYSGYAPKNAIMLKSIINNLIL

>  <soluble on expression in E. coli>
not soluble

$$$$
>  <macromolecule-sequence>
MAHHHHHHMIYGKDGKYPVGEILEYNNYNLSGQSLVEKKEREKLSIDYYEDLRKAAECHRQVRKHMQAFIKPGKKMIDIAQETERKTKELILAEKLKCGWGFPTGCSLNHCAAHYTPNYGDETVLKYDDVCKLDFGVHVNGYIIDCAFTIAFNEKYDNLIKATQDGTNTGIKEAGIDARMCDIGEAIQEAIESYEIELNQKIYPIKAISNLRGHSINKYIIHGGKCVPIVRQKEKNEIMEEGELFAIETFASTGKGYVNHENECSHYMRNPEKQFVPIRLNSAKTLLKVINDNFDTLPFCNRWLDDLGQTRHFMALKTLIDLNIVEPYPPLCDIKNSFTSQMEHTILLRPTCKEVLSRGPDF

>  <soluble on expression in E. coli>
soluble

$$$$

Q: Find the recorded soluble on expression in E. coli belonging to "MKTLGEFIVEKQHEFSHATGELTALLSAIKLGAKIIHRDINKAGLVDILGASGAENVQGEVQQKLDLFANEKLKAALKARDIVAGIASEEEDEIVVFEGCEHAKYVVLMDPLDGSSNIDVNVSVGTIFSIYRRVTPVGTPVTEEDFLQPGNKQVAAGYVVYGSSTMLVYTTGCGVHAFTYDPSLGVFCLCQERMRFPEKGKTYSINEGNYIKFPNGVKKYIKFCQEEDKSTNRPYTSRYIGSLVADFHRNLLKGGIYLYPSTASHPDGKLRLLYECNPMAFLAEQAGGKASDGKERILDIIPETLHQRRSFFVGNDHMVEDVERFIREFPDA" and report it.
Ans: soluble

Q: Find the recorded soluble on expression in E. coli belonging to "SGCIGSRTVGNEVIAVDWKGLKDVDQINMDSTSSLHGSSLHRPSTEQTRTDFSWDGINLSMEDTTSILPKLKRNSNAYGIGALAKSSFSGISRSMKDHVTKPTAMGQGRVAHMIEWQGWGKTPAVQPQHSHESVRRDTDAYSDLSDGEKEARFLAGVMEQFAISEATLMAWSSMDGEDMSVNSTQEPLGCNYSDNYQELMDSQDALAQAPMDGWPHSYVSQGMYCLGSSDAWEASDQSLIASPATGSYLGPAFDDSQPSLHEMGPSQPASGYSALEPPPLLGGDTDWAPGVGAVDLARGPAEEEKRPLAPEEGEDAGCQDLESLSPREDPEMSTTLSRKVSDVTSSGVQSFDEEEGEANN" and report it.
Ans: soluble

Q: Find the recorded soluble on expression in E. coli belonging to "MGHHHHHHSHMRDCCGMVSSGSLSSLKAAERTPGALFFSSSTPGRYYNYDSSSRPQSRSVMSDQCAGQWFLKACGLGEGDTEVFPTQHVVRALQTIFELNVQAFAGGAMGAVNGMQPHGVPDKSSVQSDEVWVGVVYGLAATMIQEVMHSFSHLSTICILAQKTSSTTKFLQGITQCHLVRL" and report it.
Ans: not soluble
